study target: Glucose-dependent insulinotropic receptor (Homo sapiens, UniProt Q8TDV5)
Sequence (Q8TDV5 whole entry): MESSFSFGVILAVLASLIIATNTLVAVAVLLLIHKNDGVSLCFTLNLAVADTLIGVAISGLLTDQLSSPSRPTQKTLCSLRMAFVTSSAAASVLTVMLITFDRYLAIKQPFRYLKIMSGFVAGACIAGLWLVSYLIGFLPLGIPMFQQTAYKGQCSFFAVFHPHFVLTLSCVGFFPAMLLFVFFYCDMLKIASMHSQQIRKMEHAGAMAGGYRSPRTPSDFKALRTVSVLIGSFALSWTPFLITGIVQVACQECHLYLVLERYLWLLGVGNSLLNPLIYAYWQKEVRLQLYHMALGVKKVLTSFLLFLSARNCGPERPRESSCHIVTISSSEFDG
experiment description: Agonist activity at human GPR119 expressed in HEK293 cells assessed as increase in cAMP stimulation measured after 60 mins by TR-FRET assay
pEC50: −log10 of the molar value.
assay readout: pEC50

> print(dat)
                                   compound  measurement
1  CC(C)(C)OC(=O)N1CC2CC(Oc3ncnc(Nc4ccc(S(C)(=O)=O)cc4F)c3[N+](=O)[O-])C1C2 (stereo not given)         7.11
2  CC(C)(C)OC(=O)N1CC2CC1CC2Nc1ncnc(Nc2ccc(S(C)(=O)=O)cc2)c1[N+](=O)[O-] (stereo in doubt; 27j)         7.32
3  CC(C)(C)OC(=O)N1CC2CC1CC2Oc1ncnc(Nc2ccc(S(C)(=O)=O)cc2F)c1[N+](=O)[O-] (stereo not given)         8.25
4  CC(C)(C)OC(=O)N1CC2CC(Oc3ncnc(Nc4ccc(S(C)(=O)=O)cc4)c3[N+](=O)[O-])C1C2 (stereo not given)         6.50
5  CC(C)(C)OC(=O)N1CC2CCC1CC2Nc1ncnc(Nc2ccc(S(C)(=O)=O)cc2F)c1[N+](=O)[O-] (stereo in doubt; 27s)         8.28

I: CC(C)(C)OC(=O)N1CC2CC(Nc3ncnc(Nc4ccc(S(C)(=O)=O)cc4F)c3[N+](=O)[O-])C1C2 (stereo in doubt; 27g)
II: CC(C)(C)OC(=O)N1CC2CCC1CC2Nc1ncnc(Nc2ccc(S(C)(=O)=O)cc2)c1[N+](=O)[O-] (stereo in doubt; 27t)
III: CC(C)(C)OC(=O)N1CC2CC(Nc3ncnc(Nc4ccc(S(C)(=O)=O)cc4F)c3[N+](=O)[O-])C1C2 (stereo in doubt; 27e)
IV: CC(C)(C)OC(=O)N1CC2CCC1CC2Oc1ncnc(Nc2ccc(S(C)(=O)=O)cc2)c1[N+](=O)[O-] (stereo in doubt; 27n)
Sort these compounds on pEC50 so the largest reading comes first. Give the labels in the order specified.
IV, II, III, I

P: CC(C)(C)OC(=O)N1CC2CC1CC2Nc1ncnc(Nc2ccc(S(C)(=O)=O)cc2F)c1[N+](=O)[O-] (stereo in doubt; 27i)
Q: CC(C)(C)OC(=O)N1CC2CCC1CC2Nc1ncnc(Nc2ccc(S(C)(=O)=O)cc2F)c1[N+](=O)[O-] (stereo in doubt; 27q)
Could you determine which record has the numerically smaller pEC50? Candidates: P and Q Respond with the label that goes with your answer.
P

1: CC(C)(C)OC(=O)N1CC2CC1CC2Oc1ncnc(Nc2ccc(S(C)(=O)=O)cc2)c1[N+](=O)[O-] (stereo not given)
2: CC(C)(C)OC(=O)N1C[C@@H]2CC[C@@H]1C[C@@H]2Oc1ncnc(Nc2ccc(S(C)(=O)=O)cc2F)c1[N+](=O)[O-] (relative stereo)
Which record would sort first by descending pEC50, 1 or 2 ? Answer format: the label of the selected item.
2
(2: 8.92, 1: 6.96)
